Data provenance: patent US8513287B2

experiment: Comparative test of solubility in water (Britton-Robinson buffer); conditions: Britton-Robinson buffer, 25 °C, pH 7, aqueous buffer
assay metric: solubility

# molecule, reported result
rows = [
    ("Nc1ncccc1-c1cc(Cc2ccc(COc3ccccn3)cc2)no1 [Parent compound, reference compound]", "< 100 µg/mL"),
]

====

experiment: physchem; conditions: 25 °C, pH 5, aqueous buffer
assay metric: solubility (mg/mL)

# compound, unit info, reported result
data = [
    ("Nc1c(-c2cc(Cc3ccc(COc4ccccn4)cc3)no2)ccc[n+]1COP(=O)([O-])O [Example 1]", "mg/mL", 1.9),
]

====

Test: physchem
Details: 25 °C, pH 8, aqueous buffer
Description: 3-(3-(4-(Pyridin-2-yloxymethyl)-benzyl)-isoxazol-5-yl)-pyridin-2-ylamine described in Reference Example 1, which is the parent compound, and the compound of Example 1 were compared for solubility in a Britton-Robinson buffer (ionic strength: 0.3) at 25° C.
assay metric: solubility (mg/mL)

# test smiles, reported result
measured = [
    ("Nc1c(-c2cc(Cc3ccc(COc4ccccn4)cc3)no2)ccc[n+]1COP(=O)([O-])O", 16.4),
]

====

assay: Comparative test of solubility in water (Britton-Robinson buffer); conditions: Britton-Robinson buffer, 25 °C, pH 9, aqueous buffer
assay metric: solubility

# compound, assay metric, reported result
data = [
    ("Nc1ncccc1-c1cc(Cc2ccc(COc3ccccn3)cc2)no1 [Parent compound, reference compound]", "solubility", "< 100 µg/mL"),
]

====

assay: Comparative test of solubility in water (Britton-Robinson buffer); conditions: Britton-Robinson buffer, 25 °C, pH 5, aqueous buffer

# molecule, solubility
measured = [
    ("Nc1ncccc1-c1cc(Cc2ccc(COc3ccccn3)cc2)no1 [Parent compound, reference compound]", "< 0.1 mg/mL"),
]

====

assay: physchem; details: 25 °C, pH 7, aqueous buffer
assay metric: solubility (mg/mL)

# test smiles, reported result
rows = [
    ("Nc1c(-c2cc(Cc3ccc(COc4ccccn4)cc3)no2)ccc[n+]1COP(=O)([O-])O", 10.5),
]
